Biological target: Adenosine A₁ Receptor (Cavia porcellus, UniProt P47745)
Sequence (P47745 1-326): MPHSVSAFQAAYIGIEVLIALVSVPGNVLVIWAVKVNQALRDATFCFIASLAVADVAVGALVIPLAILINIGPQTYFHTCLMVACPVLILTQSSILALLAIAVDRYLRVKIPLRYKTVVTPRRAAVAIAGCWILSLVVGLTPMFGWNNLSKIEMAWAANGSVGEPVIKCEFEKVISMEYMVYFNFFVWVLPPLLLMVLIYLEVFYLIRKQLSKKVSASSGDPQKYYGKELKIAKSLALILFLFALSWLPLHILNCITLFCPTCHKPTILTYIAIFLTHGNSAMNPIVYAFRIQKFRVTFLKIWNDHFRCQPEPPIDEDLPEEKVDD
Parameter Measured: log10(Ki) (log10 of the value in nM)

Compound	log10(Ki)
CCCn1c(=O)c2[nH]c(-c3ccc(S(=O)(=O)N(C)CCN(C)C)cc3)nc2n(CCC)c1=O [PD 115199, reference compound]	2.28
CCCn1c(=O)c2[nH]c(C34CC5CC(CC(C5)C3)C4)nc2n(CCC)c1=O	0.89
CCCn1c(=O)c2[nH]c([C@@H]3CC[C@H]4CCC[C@H]43)nc2n(CCC)c1=O (relative stereo)	0.58
CCCCn1c(=O)c2[nH]c(C34CC5CC(CC3C5)C4)nc2n(CCCC)c1=O	0.96
CCn1c(=O)c2[nH]c(C34CC5CC(CC3C5)C4)nc2n(CC)c1=O	0.85
CCCn1c(=O)c2[nH]c([C@H]3CC[C@H]4CCC[C@H]43)nc2n(CCC)c1=O (relative stereo)	0.70
CCCn1c(=O)c2[nH]c([C@H]3C[C@H]4CC[C@@H]3C4)nc2n(CCC)c1=O (relative stereo)	0.64
CCCn1c(=O)c2[nH]c([C@H]3C[C@@H]4C=C[C@@H]3C4)nc2n(CCC)c1=O (relative stereo)	0.74

---

test system: zig-zag strips of the trachea; experiment: effects on passive Schultz-Dale reaction (antigen-induced contraction of sensitized trachea strips); parameters: species or system guinea pigs; conditions: Cavia porcellus; concentration to produce 50% relaxation of EWA (1µg/mℓ)-contracted trachea strips of passively sensitized guinea pigs; read-out: Passive S-D Reaction IC₅₀
pIC50: −log10 of the molar value.
Item-by-item account of pIC50
Parameter Measured: pIC50

Molecule	Observed Result
CCCn1c(=O)c2[nH]c(C(C)Cc3csc(C)n3)nc2n(CCC)c1=O (stereo not shown)	6.06
CCCn1c(=O)[nH]c(=O)c2[nH]c(C34CC5CC(CC3C5)C4)nc21	4.76
CCCn1c(=O)c2[nH]c(C(C)Cc3ccncc3)nc2n(CCC)c1=O (stereo not shown)	5.57
CCCn1c(=O)[nH]c(=S)c2[nH]c(C34CC5CC(CC3C5)C4)nc21	4.64

---

Item-by-item account of Increase in Urine (%)
tested on: Wistar rats; assay: diuretic effect; format: in vivo; conditions: 25 mg/kg oral, urine collected for 6 hours, relative to control

Molecule	Increase in Urine (%)
CCCn1c(=O)c2[nH]c(Cc3csc(N)n3)nc2n(CCC)c1=O	108
NS(=O)(=O)c1cc(C(=O)O)c(NCc2ccco2)cc1Cl [Furosemide, reference compound]	75
CCCn1c(=O)c2[nH]c(C34CC5CC(CC(C5)C3)C4)nc2n(CCC)c1=O	129
CCCn1c(=O)c2nc(C3CC4CCC3C4)[nH]c2n(CCC)c1=O (stereo not shown)	113
